# Test system: OVCAR-5
# ASSAY_NOTES: NCI tumour cell line growth inhibition, 48 h
Active and inactive are the calls of the source. Cut-off read from the data, not from the text of the source: active = GI50 up to about 1.1 µM and inactive = higher.
READOUT_TYPE: GI50

# MOLECULE, RESULT
records = [
    ("O=C1c2ccccc2/N=C(/c2cc3c(cc2Cl)Sc2nccn2S3(=O)=O)OS(=O)(=O)N1c1ccccc1", "19.4 µM (inactive)"),
    ("CC(=O)OC1(Sc2ccccc2)CC2[C@H]3COC(C)(C)O[C@H]3CC[C@@]2(C)CC1=O (some centres undefined)", "> 100 µM (inactive)"),
    ("O=C(O)C(F)(F)C(F)(F)C(F)(F)C(F)(F)C(F)(F)C(F)(F)C(F)(F)C(F)(F)F", "33.3 µM (inactive)"),
    ("CCC(C)C1=C(OC(C)=O)[N+]2([O-])Oc3ccc(-c4c(OC(C)=O)c(OC(C)=O)c(-c5ccc(OC(C)=O)cc5)c(OC(C)=O)c4OC(C)=O)cc3OC2(C(C)CC)C(=O)N1OC(C)=O (centres undefined)", "24 µM (inactive)"),
    ("c1ccc(OCc2nnc(CCCCCCCCc3nnc(COc4ccccc4)o3)o2)cc1", "> 100 µM (inactive)"),
    ("Cc1cc2c(c(C(N)=O)c1C)-c1ccccc1C2=O", "> 100 µM (inactive)"),
    ("CC(=O)Oc1cccc2c1C(=O)C(Br)(Br)CCC2", "7.6 µM (inactive)"),
    ("CC[N+]1(C)CCC(O)(/C=C/c2ccc(Cl)c(Cl)c2)C(C(=O)/C=C/c2ccc(Cl)c(Cl)c2)C1 (centres undefined)", "2.62 µM (inactive)"),
    ("CSc1ncc2c(n1)-c1ccccc1OC2NC(C)(C)C (centres undefined)", "50.7 µM (inactive)"),
]

====

# System: SN12C
# ASSAY_NOTES: NCI tumour cell line growth inhibition, 48 h
Calls of active or inactive are those of the source. Cut-off read from the data, not from the text of the source: active = GI50 up to about 1.1 µM and inactive = higher.
Possible outcomes: 1 (yes) for active, 0 (no) for inactive

# COMPOUND, GROUP
records = [
    ("CC1CCN(c2nnc(Cl)cc2C(=O)c2ccccc2)CC1", "0 (no)"),
    ("CC1=NN(c2nc(N)nc(/C(C#N)=C/c3ccccc3O)n2)C(C)(C)C1", "0 (no)"),
    ("CCC1(CC)C(=O)CC[C@@]2(C)C1=CC[C@H]1[C@@H]3CC[C@H](O)[C@@]3(C)CC[C@@H]12", "0 (no)"),
    ("CN(C)c1ccc(C=c2c3ccccc3n3c2cc(-c2ccc(Cl)cc2)[n+]3C)cc1", "1 (yes)"),
    ("COC(=O)C(=O)OC1(C(C)=O)CC2(c3ccccc3)OC1(c1ccccc1)c1ccccc12 (stereo unspecified)", "0 (no)"),
    ("Cn1c2c(c3ccccc3c1=O)C(=O)c1ccccc1-2", "0 (no)"),
    ("CCOc1c2ccsc2c(OCC)c2ccsc12", "0 (no)"),
    ("Cc1ccc2c3c1[C@@H]1O[C@@H]1c1cccc(c1-3)[C@@H]1O[C@H]21", "0 (no)"),
    ("COc1ccccc1/C=N/N=C(\\N)NO", "0 (no)"),
    ("CCOC(=O)C(NCc1cccc(C(F)(F)F)c1)(NC(=O)CC)C(F)(F)F (stereo unspecified)", "0 (no)"),
    ("O=C(c1ccccc1)c1ccc(N2C(=O)/C(=C/Cc3ccco3)N=C2c2ccccc2)c(N2C(=O)/C(=C/Cc3ccco3)N=C2c2ccccc2)c1", "0 (no)"),
    ("CC(O)CN1C(=O)NC(Cc2ccccc2)C1=O (stereo unspecified)", "0 (no)"),
    ("N=C(N)NS(=O)(=O)c1ccc(Nc2c3ccccc3nc3ccc(C(=O)Nc4ccc(S(N)(=O)=O)cc4)cc23)cc1", "0 (no)"),
    ("CC1OC23CCCCC2C(C#N)(C#N)C1(C#N)C(=N)O3 (stereo unspecified)", "0 (no)"),
    ("Nc1cc(OCc2ccccc2)c(OCc2ccccc2)cc1C=O", "0 (no)"),
    ("Cc1nc2sccn2c1C(=O)NNC(N)=S", "0 (no)"),
    ("COc1ccc(/N=c2\\ssc3c(=S)ssc23)cc1", "0 (no)"),
    ("Cc1ccc(S(=O)(=O)N/N=C2\\CC3CC4CCC2C4C3)cc1 (stereo unspecified)", "0 (no)"),
    ("CN(c1ccccc1)C(c1ccccc1)C(O)c1ccccc1 (stereo unspecified)", "0 (no)"),
    ("CCOc1ccc(/N=N/c2ccc3cc(/C(C)=N/NC(=O)/C(C#N)=C\\c4ccc(N(CCC#N)CCC#N)cc4)c(=O)oc3c2)cc1", "0 (no)"),
    ("NCCCC(N)(C(=O)O)C(F)F (stereo unspecified)", "0 (no)"),
]

====

# Test system: SNB-75
# ASSAY_NOTES: NCI tumour cell line growth inhibition, 48 h
The source made the active and inactive calls. Cut-off read from the data, not from the text of the source: active = GI50 up to about 1.1 µM and inactive = higher.
Possible outcomes: active, inactive

# COMPOUND, GROUP
records = [
    ("C=CC[C@H]1[C@@H](O[Si](C)(C)C(C)(C)C)[C@H](n2ccc(=O)[nH]c2=O)O[C@@H]1CO[Si](C)(C)C(C)(C)C", "inactive"),
    ("CCOC(=O)CC[C@@H](NC(=O)c1ccc(N[C@@H]2c3cc4c(cc3C(c3cc(OC)c(O)c(OC)c3)C3C(=O)OC[C@@H]32)OCO4)cc1)C(=O)OCC (stereo partly drawn)", "active"),
    ("CC(C)=CCOc1cc(NC(=S)c2ccoc2C)ccc1Cl", "inactive"),
    ("Cc1cc(O)c2c(c1O)C(=O)C13C(=C(O)C4C(O)C1C1C(O)C3C(O)=C3C(=O)c5c(O)cc(C)c(O)c5C(=O)C341)C2=O (stereo not drawn)", "active"),
    ("NC(=O)c1ccccc1[N+](=O)[O-]", "inactive"),
    ("CCOC(=O)C1=NN(c2ccc(Cl)cc2)C2=CC(C)=NN(C)C(=S)N21", "inactive"),
    ("CC(C)(O)C1CC(=O)C(C)(C2C(O)CC3(C)C4CC=C5C(CCC(O)C5(C)C)C4(C)C(=O)CC23C)O1 (stereo not drawn)", "inactive"),
    ("O=C1C(NS(=O)(=O)c2ccccc2)=C(n2ccnc2)C(=O)c2ccccc21", "inactive"),
    ("COC(=O)c1c(C)c2c(c(C)c1C(=O)OC)-c1c(C)ccc3ccc(C)c-2c13", "inactive"),
    ("c1ccc2nc3c(nc2c1)sc1ccccc13", "inactive"),
    ("O=C(c1ccccc1)c1ccc(N2C(=O)/C(=C/Cc3ccco3)N=C2c2ccccc2)c(N2C(=O)/C(=C/Cc3ccco3)N=C2c2ccccc2)c1", "inactive"),
    ("COc1cc(OC)c(-c2ccc(OCc3ccccc3)c3c(OC)cc(C)cc23)c2c1C(C)=N[C@H](C)C2", "inactive"),
    ("COC(=O)C12C3C4(C(=O)OC)C1C1(C(=O)OC)C2C3(C(=O)OC)C41C(=O)N(C(C)C)C(C)C (stereo not drawn)", "inactive"),
    ("CCN(CC)CCN1C(=O)CC2[C@@H]3CCc4cc(OC)ccc4C3CC[C@]2(C)C1=O (stereo partly drawn)", "inactive"),
    ("CCOC(=O)C(C)(NC(=O)c1ccc(NCc2ccc3nc(NC(=O)c4ccccc4)nc(NC(=O)c4ccccc4)c3c2)cc1)C(=O)OCC", "inactive"),
    ("O=c1c2c3c(sc2nc2n1N=C(c1ccc(Br)cc1)CS2)CCCC3", "inactive"),
    ("CCC(C)C(=O)OC1CC2(C)C(c3ccoc3)OC(=O)CC23OC2(C)OC34C(OC(=O)C(C)C)C3(O)C(OC(=O)C5(C)OC5C)C5(C)CC3(O)C(C)(C5CC(=O)OC)C14O2 (stereo not drawn)", "inactive"),
    ("CCCCCCCCCCCCCC(=O)OCC(CCS(=O)(=O)O[C@H]1CC[C@@]2(C)C(=CC[C@@H]3C2CC[C@]2(C)C(=O)CCC32)C1)OC(=O)CCCCCCCCCCCCC (stereo partly drawn)", "inactive"),
    ("Nc1nc(N)c2nn(-c3ccc(C(=O)O)cc3)nc2n1", "inactive"),
    ("COc1ccc(-n2cnc3c(NCC(=O)O)ncnc32)cc1", "inactive"),
    ("CC(C)(C)OC(=O)[C@@H]1CCC(=S)N1Cc1ccccc1", "inactive"),
    ("C=CC1(c2ccccc2Cl)N/C(=C/OCC)CO1 (stereo not drawn)", "inactive"),
    ("O=C(O)c1ccc(C(=O)O)c2c(C(=O)O)ccc(C(=O)O)c12", "inactive"),
    ("CN(C)c1ccc(/C=C(\\NC(=O)c2ccccc2)C(=O)Nc2ccccc2C(=O)NN2C(=O)CSC2c2ccc(N(C)C)cc2)cc1 (stereo not drawn)", "inactive"),
    ("O=C1Nc2nc3ccccc3n2N=C2CCCC12 (stereo not drawn)", "inactive"),
    ("CC(C)C1=C(O)C(=O)C2=C(C1=O)C(O)CC1C(C)(C)CCCC21C (stereo not drawn)", "inactive"),
    ("N#CC12COC3(CCCCC3C1(C#N)C#N)OC2=N (stereo not drawn)", "inactive"),
    ("N=C(N)c1ccc2oc3ccc(C(=N)N)cc3c(=O)c2c1", "inactive"),
    ("C=C(CS(=O)(=O)c1ccccc1)[P+](c1ccccc1)(c1ccccc1)c1ccccc1", "inactive"),
    ("CN(C)c1nc(N(C)C)nc(N(C)C23CC4CC(CC(C4)C2)C3)n1", "inactive"),
    ("Cn1cnc(N)c(N=O)c1=O", "inactive"),
    ("COc1ccccc1C1Nn2c(nc3ccccc3c2=O)N1c1ccc(C)cc1 (stereo not drawn)", "inactive"),
    ("O=C(NCC(C(=O)OCc1ccccc1)C(=O)OCc1ccccc1)OCc1ccccc1", "inactive"),
    ("CCCCCCCCOCC(O)CO (stereo not drawn)", "inactive"),
    ("FC(F)=C(c1ccc(-c2ccc(Cl)cc2)cc1)C(F)(F)F", "inactive"),
    ("CCC(Oc1ccc(OC)c2ccccc(=O)c12)C(=O)O (stereo not drawn)", "inactive"),
    ("CCn1c(=N)sc2nc3ccccc3n2c1=O", "inactive"),
    ("CC1(C)SC2C(NC(=O)C(C(=O)O)c3ccccc3)C(=O)N2C1C(=O)O (stereo not drawn)", "inactive"),
]
